Tested on: HCT-116 colon
protocolSummary: NCI tumour cell line growth inhibition, 48 h
measurementKind: TGI (µM)
Output spec: scalar in µM, unitless text.

Q) Name the recorded TGI of the compound listed here: `CN1CCN(c2c(O)c3c(c(O)c2Cl)C(=O)C=CC3=O)CC1`
A) 0.51

Q) Name the recorded TGI of the compound listed here: COC1=CCC2=C(CCN(C(=O)C3CCC3)C2Cc2ccc(OC)c(O)c2)C1 (stereo not given)
A) 48.6

Q) Name the recorded TGI of the compound listed here: `C=C1C(=O)O[C@H]2[C@H]1CC/C(COC(=O)C(=O)c1cn(C)c3ccc(OC)cc13)=C\CC[C@@]1(C)O[C@@H]21`
A) 7.38

Q) Name the recorded TGI of the compound listed here: `COC1=C(OC)C(=O)C(Cc2c(Cl)nc3n2CCS3)=C(C)C1=O`
A) 25.3

* * *

Exercise: for every item that follows, state its recorded TGI.
Test system: KM12 colon
protocolSummary: NCI tumour cell line growth inhibition, 48 h

Q) Name the recorded TGI of the molecule listed here: `N#CI1OC(C(F)(F)F)(C(F)(F)F)c2ccccc21`
A) 35.5 µM

Q) Name the recorded TGI of the molecule listed here: COc1ccc(/C=C/C(c2cc(OC)c(OC)c(OC)c2)n2cncn2)cc1O (stereo not given)
A) > 100 µM

Q) Name the recorded TGI of the molecule listed here: COc1cc(C2C3=C(N=C4SC(C(C)=O)=C(C)N42)c2ccccc2CC3)cc(OC)c1OC (stereo not given)
A) > 100 µM

Q) Name the recorded TGI of the molecule listed here: `COc1ccc2sc3c(NCCCNCCO)nc4ccccc4c3c(=O)c2c1`
A) 3.12 µM

Q) Name the recorded TGI of the molecule listed here: `c1cn[nH]c1`
A) > 10 µM

Q) Name the recorded TGI of the molecule listed here: COc1cc(-c2coc3c(OC)c(OC4OC(COC5OC(C)C(O)C(O)C5O)C(O)C(O)C4O)c(OC)c(O)c3c2=O)cc(C)c1O (stereo not given)
A) 29.3 µM

Q) Name the recorded TGI of the molecule listed here: `CC1=N/C(=C\c2ccc([N+](=O)[O-])cc2)C(=O)O1`
A) > 100 µM

Q) Name the recorded TGI of the molecule listed here: `CCN1CCCCC(=N\O)/C(=N/O)CCCC1`
A) > 100 µM

Q) Name the recorded TGI of the molecule listed here: CC(C)(C)c1nnc2n(c1=O)N=CC(c1ccc(Br)cc1)S2 (stereo not given)
A) > 100 µM

Q) Name the recorded TGI of the molecule listed here: `CC1(C)CC[C@]2(C(=O)O)CC[C@]3(C)[C@H](CC[C@@H]4[C@@]5(C)CCC(=O)C(C)(C)[C@@H]5CC[C@]43C)[C@H]2[C@H]1OC(=O)C(F)(F)F`
A) 24.4 µM

* * *

Exercise: for every item that follows, state its recorded TGI.
Tested on: OVCAR-4 ovarian
protocolSummary: NCI tumour cell line growth inhibition, 48 h
Output spec: scalar in µM, unitless text.

Q) Name the recorded TGI of the compound listed here: `CC(C)=CCC/C(C)=C/CC/C(C)=C/CSc1ccc(Cl)cc1C(=O)O`
A) 86.8

Q) Name the recorded TGI of the compound listed here: `COc1c(Cl)c(Cl)c(OC)c2c1C(=O)C=CC2=O`
A) 28.9

Q) Name the recorded TGI of the compound listed here: `N#Cc1ccc2oc3ccc(C#N)cc3c(=O)c2c1`
A) 38.3

* * *

Exercise: for every item that follows, state its recorded TGI.
Test system: HOP-62 NSCLC
protocolSummary: NCI tumour cell line growth inhibition, 48 h
Output spec: scalar in µM, unitless text.

Q) Name the recorded TGI of the molecule listed here: `CCCCc1nc2cc(/C=C/C(=O)NO)ccc2n1CCN(CC)CC`
A) 11.6

Q) Name the recorded TGI of the molecule listed here: `COC1=C(OC)C(=O)C(Cc2c(Cl)nc3n2CCS3)=C(C)C1=O`
A) 29.1

Q) Name the recorded TGI of the molecule listed here: `Cc1nc2ccccc2cc1C[N+]12CN3CN(CN(C3)C1)C2`
A) 69.9

Q) Name the recorded TGI of the molecule listed here: `Cc1nc2ccc(NCCN(C)C)c3c(=O)c4cc(O)ccc4n1c23`
A) 11.1

Q) Name the recorded TGI of the molecule listed here: `CC(C)=CCC/C(C)=C/CC/C(C)=C/CSc1ccc(Cl)cc1C(=O)O`
A) 28.1

* * *

Test system: HOP-62 NSCLC
protocolSummary: NCI tumour cell line growth inhibition, 48 h
Exercise: for every item that follows, state its recorded TGI.

Q) Name the recorded TGI of the molecule listed here: `O=C1C=C(NCCc2cc(Br)c(O)c(Br)c2)C(=O)c2[nH]cnc21`
A) > 100 µM

Q) Name the recorded TGI of the molecule listed here: `COc1ccc2c(c1)C(=O)c1c-2n(CCCCl)c(=O)c2cc(N(C)C)ccc12`
A) 69 µM

Q) Name the recorded TGI of the molecule listed here: `C=CCNC(=S)OCCCCCCCCCC`
A) 36.3 µM

Q) Name the recorded TGI of the molecule listed here: CC(C)(C)c1nnc2n(c1=O)N=CC(c1ccc(Br)cc1)S2 (stereo not given)
A) > 100 µM

Q) Name the recorded TGI of the molecule listed here: `NCC(=O)CCC(=O)O`
A) > 100 µM

Q) Name the recorded TGI of the molecule listed here: O=C(CC(=O)Nc1ccccc1Cl)NNC(Sc1ccccc1)c1cc(N=Nc2ccc(Br)cc2)ccc1O (stereo not given)
A) 8.67 µM

Q) Name the recorded TGI of the molecule listed here: CSc1nc(=O)c(C#N)c(-c2ccccc2)n1C1OC(COC(C)=O)C(OC(C)=O)C(OC(C)=O)C1OC(C)=O (stereo not given)
A) > 100 µM

Q) Name the recorded TGI of the molecule listed here: `COc1ccc(S(=O)(=O)N/N=C(\C)CN2C(=O)c3ccccc3C2=O)cc1`
A) > 100 µM

Q) Name the recorded TGI of the molecule listed here: `Cc1ccc(Nc2nc(NS(=O)(=O)c3cc(C)c(Cl)cc3S)n[nH]2)cc1`
A) > 100 µM

Q) Name the recorded TGI of the molecule listed here: `S=C1CSc2c(cnc3ccccc23)N1`
A) > 100 µM

Q) Name the recorded TGI of the molecule listed here: `CC(C)[C@@H](CS(=O)(=O)C(C)C)N1C(=O)[C@@](C)(CC(=O)O)C[C@H](c2cccc(Cl)c2)[C@H]1c1ccc(Cl)cc1`
A) 56.7 µM

Q) Name the recorded TGI of the molecule listed here: CC(CN(C)C)C(=O)/C=C/c1ccc(Cl)c(Cl)c1 (stereo not given)
A) 10.4 µM

Q) Name the recorded TGI of the molecule listed here: `COc1cc(C)cc(OC)c1/C=C/C(=O)O`
A) > 100 µM

Q) Name the recorded TGI of the molecule listed here: CS(=O)(=O)CS(=O)CS(=O)CS(=O)CC(NC(=O)CCC(N)C(=O)O)C(=O)O (stereo not given)
A) > 100 µM

Q) Name the recorded TGI of the molecule listed here: O=C(CCC(=O)OCC1OC(O)(CC2OC(CO)C(O)C(O)C2O)C(O)C1O)OCc1ccccc1 (stereo not given)
A) > 100 µM

Q) Name the recorded TGI of the molecule listed here: `C/C(=N\n1c(Cc2ccccc2)n[nH]c1=O)c1ccc([N+](=O)[O-])cc1`
A) > 100 µM

Q) Name the recorded TGI of the molecule listed here: OC1(c2ccc(Cl)cc2)c2ccccc2C2=NCc3ccccc3CN21 (stereo not given)
A) 21.9 µM

Q) Name the recorded TGI of the molecule listed here: `Clc1ccc(-c2cn(-c3ccccc3)c(-c3ccccc3)n2)c(Cl)c1`
A) 5.02 µM

Q) Name the recorded TGI of the molecule listed here: `c1ccc(-c2nc3ccccc3n3nnnc23)cc1`
A) > 100 µM

Q) Name the recorded TGI of the molecule listed here: `O=C1C=C(Nc2nc(C(=O)O)cc(=O)[nH]2)c2ccccc2C1=O`
A) > 100 µM

* * *

System: SF-295 CNS
protocolSummary: NCI tumour cell line growth inhibition, 48 h
Exercise: for every item that follows, state its recorded TGI.

Q) Name the recorded TGI of the compound listed here: `N#Cc1nc(Nc2ccc([N+](=O)[O-])cc2)sc1N`
A) > 100 µM

Q) Name the recorded TGI of the compound listed here: `CC(C)(CN1CCCCC1)C(=O)/C=C/c1c(Cl)cccc1Cl`
A) 7.05 µM

Q) Name the recorded TGI of the compound listed here: `Cc1nn(C)c(=S)n(C)c1=O`
A) > 100 µM

Q) Name the recorded TGI of the compound listed here: `c1cn[nH]c1`
A) > 10 µM

Q) Name the recorded TGI of the compound listed here: `COc1cc(C(CC(OC)OC)=C(C#N)C#N)cc(OC)c1OC`
A) 62.9 µM

Q) Name the recorded TGI of the compound listed here: `Clc1ccc(-c2nn3c(C45CC6CC(CC(C6)C4)C5)nnc3s2)cc1`
A) > 100 µM

Q) Name the recorded TGI of the compound listed here: `CCCCc1nc2cc(/C=C/C(=O)NO)ccc2n1CCN(CC)CC`
A) 1.23 µM

Q) Name the recorded TGI of the compound listed here: COC1CCC(n2c([C@@H]3CCCC(=O)N3c3ccc(F)c(F)c3)nc3cc(-c4c(C)noc4C)ccc32)CC1 (some centres undefined)
A) 29 µM

Q) Name the recorded TGI of the compound listed here: COC(=O)C(N)CCCC(N)C(=O)NC(C)C(=O)NC(CCC(=O)NCCCNc1ccc([N+](=O)[O-])c2[nH]c3ccccc3c(=O)c12)C(N)=O (centres undefined)
A) 20.9 µM

Q) Name the recorded TGI of the compound listed here: CC(=O)OC1C(O)C(C)OC(OC(=O)C2CCC3C(C2)OC2(CC(OC(=O)/C=C/c4ccccc4)C(C)CO2)C32CO2)C1OC1OC(C)C(O)C(O)C1O (centres undefined)
A) 0.542 µM

Q) Name the recorded TGI of the compound listed here: `CN(C)/C=N/S(=O)(=O)c1nn2c(C=O)c(-c3cc4ccccc4oc3=O)nc2s1`
A) > 100 µM

Q) Name the recorded TGI of the compound listed here: COc1ccc(CCC2NCCc3cc(OC)c(OC)cc32)cc1 (centres undefined)
A) > 100 µM

Q) Name the recorded TGI of the compound listed here: `CC(C)(Oc1ccc(C(=O)c2ccc(Cl)cc2)cc1Cl)C(=O)N1CCN(c2ccccc2)CC1`
A) > 100 µM

Q) Name the recorded TGI of the compound listed here: CC(=O)N1C(OCc2ccccc2)CCN1c1ccccc1 (centres undefined)
A) > 10 µM

Q) Name the recorded TGI of the compound listed here: `Cc1[nH]c(=O)[nH]c(=O)c1C(=O)N(CCO)Cc1ccccc1`
A) > 100 µM

Q) Name the recorded TGI of the compound listed here: `COc1ccc2c(c1)C(=O)c1c-2n(CCCCl)c(=O)c2cc(N(C)C)ccc12`
A) > 100 µM

Q) Name the recorded TGI of the compound listed here: `Oc1ccc(-c2nc3ccc4[nH]ncc4c3c3c2CCCC3)c2cccnc12`
A) 2.68 µM

Q) Name the recorded TGI of the compound listed here: `COc1ccc(Nc2c[nH]c(=O)[nH]c2=O)cc1`
A) > 100 µM

Q) Name the recorded TGI of the compound listed here: `C/C(=C/c1c(C)[nH]c(=O)[nH]c1=O)C(=O)O`
A) > 1380 µM
